# TGI per record follows
- Test system: COLO 205 colon
- assay protocol: NCI tumour cell line growth inhibition, 48 h

compound	TGI
CC(C)C(OC(=O)c1ccc(NCC2=CC(=O)C=CC2=O)cc1)C(C)C	9.84 µM
C=CCc1c(O)c2nsnc2c2nsnc12	> 10 µM
CCCCCCCCCOCC(COP(=O)([O-])OCC[N+](C)(C)C)OC (stereo unspecified)	> 100 µM
O=[S@]1c2ccc3ccccc3c2N[C@@H]2[C@H]1[C@H]1C=C[C@@H]2C1	> 100 µM
COc1cc(/C=N/N=C(\N)NO)c(Cl)cc1O	> 100 µM
COC(=O)c1cc2c3ccccc3n3c2c(n1)-c1[nH]c2ccccc2c(=O)c1C3	> 100 µM
O=C1CC(CC(=O)c2ccc(Br)cc2)C(=O)/C1=C(/O)c1ccc(Br)cc1 (stereo unspecified)	> 100 µM
CC(Nc1ccc(Cl)c(Cl)c1)c1ccncc1 (stereo unspecified)	31.4 µM
CCOC(=O)c1nc2cc(C(F)(F)F)ccc2nc1Nc1ccc(C(=O)OC)s1	44.5 µM
Cc1ccc2c(=O)cc(-c3ccc(C)s3)[nH]c2n1	2.29 µM
C=CCC(N[C@@H](CO)c1ccccc1)c1cn(C(=O)OCC)c2ccccc12 (stereo partly specified)	44.1 µM
COc1cccc(C2SC(N)=Nc3c2c(C)nn3C(=O)Cc2ccccc2)c1 (stereo unspecified)	> 100 µM
C#CCN(c1ccc(C(=O)N[C@@H](CCC(=O)N[C@H](CCC(=O)O)C(=O)O)C(=O)O)cc1)C1CCc2cc3nc(CO)[nH]c(=O)c3cc21 (stereo partly specified)	> 100 µM
C=CC1CN(C(=O)OCC)N(C(=O)OCC)C1CCc1ccccc1 (stereo unspecified)	> 100 µM
Cc1c(N=C/C=C/c2ccccc2)c(=O)n(-c2ccccc2)n1C	> 100 µM
O=C(NNC(=S)NC1CCCCC1)C12CC3CC(CC(C3)C1)C2	> 100 µM
CC(=O)OCC(=O)OC[C@H](OCc1ccccc1)[C@@H]1[C@H](OC(C)=O)C(=O)N1Cc1ccccc1	> 100 µM
Cc1cc(-c2cc(O)ccc2Cl)cc2nnc(Nc3ccc(OCCN4CCCC4)cc3)nc12	4.29 µM
CCCCCc1c(CCCC)c(=O)[nH]c2nc(NC(=O)CCCC)ccc12	> 100 µM
O=C1CCc2ccc(O)c(c2)Oc2ccc(cc2)C(Sc2ccccc2)CCO1 (stereo unspecified)	33.1 µM
COC(=O)/C=C1/OC(c2ccccc2)=C(C)C1=O	31.3 µM
O=C(c1ccc(Cl)cc1)C(O)c1ccc(Cl)cc1 (stereo unspecified)	> 100 µM
CSc1ccc(Nc2cc(=O)[nH]c(=O)[nH]2)cc1	> 100 µM
CC(=O)C1=C(O)C=C2Oc3c(C(=O)/C=C/c4cc(Cl)cc(Cl)c4)c(O)c(C)c(O)c3[C@]2(C)C1=O	0.988 µM
CC(=O)c1ccc2c(c1)CC1(C2)Cc2cc3c(c(C(=O)O)c2C1)CCC3 (stereo unspecified)	> 100 µM
N#CC(C(=O)/C(=N\NC(N)=O)C(C#N)c1ccccc1)c1ccccc1 (stereo unspecified)	> 100 µM
NC1CCC(N(CC(=O)O)CC(=O)O)C(N(CC(=O)O)CC(=O)O)C1 (stereo unspecified)	> 100 µM
Cc1c(CCCl)c(N=P(c2ccccc2)(c2ccccc2)c2ccccc2)n2c(nc3ccccc32)c1C#N	> 10 µM
C/C(=C(\c1ccc(OCCN2CCCCCC2)cc1)c1ccc(OC(=O)c2ccccc2)cc1)c1ccc(Cl)cc1	7.76 µM
CCCCCCCCCCCCOC1C(CNC(=O)C2OC3OC(C)(C)OC3C2NC(=O)CN2CCN(c3ccc(OC)cc3)CC2)OC2OC(C)(C)OC21 (stereo unspecified)	4.82 µM
Nc1ccccc1C(=O)CCC1C(=O)NC(=S)NC1=O	> 100 µM
COc1ccc2c(c1)/C(=C\c1c(Cl)[nH]c3ccccc13)C(=O)N2	6.6 µM
C/C=C1/CC(C)C(C)(O)C(=O)OCC2C(O)CN3CCC(OC1=O)C23 (stereo unspecified)	> 100 µM
CC1=C(O)c2ccccc2C(=O)C1=O	> 100 µM
O=C1Nc2nccnc2C(=O)N2CCC[C@@H]12	> 100 µM
COC1OC2COC(C)(C)OC2C(OC(C)=O)C1NC(=O)N(CCCl)N=O (stereo unspecified)	> 100 µM
O=[N+]([O-])c1ccc(-n2nc3ccc4c(no[n+]4[O-])c3n2)cc1	> 100 µM
CC(C)C1NC(=O)CC(c2ccccc2)N(N=O)C1c1ccccc1 (stereo unspecified)	> 100 µM
Cc1cc2c(-c3nc4ccccn4c3N)c(O)c(O)cc2c(O)c1-c1c(C)cc2c(-c3nc4ccccn4c3N)c(O)c(O)cc2c1O	> 25 µM
CCc1ccc(COC(=O)C2=C(C)NC(C)=C(C(=O)OCc3ccc(CC)cn3)C2C2=COCCO2)nc1	29.6 µM
CCOC(=O)/C(=N/Nc1ccccc1)N1C(=S)C=C(C)NN(C)C1=S	> 100 µM
